- Test system: HEK293T cells
- CONDITIONS: 24 h
- Procedure: HEK293T cells were obtained from the American Type Culture Collection (CRL-3216). […] One day before the experiment, an aliquot of 100 μl of the cells at 50,000 cells per ml was seeded into each well of the cell-treated 96-well plates used in the experiment (that is, 5,000 cells per well). […] The resulting salts were then resuspended in hydrochloric acid (0.04 mol l^−1) in anhydrous isopropanol and quantified by spectrophotometric measurements of absorbance at 570 nm. […]
Peptide text beside a SMILES is read from it.
Each entry below lists one item and its recorded CC50 value.

CC(C)C[C@H](NC(=O)[C@H](CC(C)C)NC(=O)[C@@H](NC(=O)[C@H](CCCNC(=N)N)NC(=O)[C@H](C)NC(=O)[C@H](Cc1ccccc1)NC(=O)[C@H](CCCNC(=N)N)NC(=O)[C@H](CO)NC(=O)[C@H](Cc1c[nH]c2ccccc12)NC(=O)[C@H](CCCNC(=N)N)NC(=O)[C@H](CC(C)C)NC(=O)[C@H](CCCCN)NC(=O)[C@H](CC(C)C)NC(=O)[C@@H](N)Cc1ccccc1)C(C)C)C(=O)O [Equusin-1] (H-FLKLRWSRFARVLL-OH; N-terminus and C-terminus assumed) :: > 128 µM
CC[C@H](C)[C@H](N)C(=O)N[C@@H](CC(C)C)C(=O)N[C@@H](CC(C)C)C(=O)N[C@H](C(=O)N[C@H](C(=O)N[C@@H](C)C(=O)N[C@H](C(=O)N[C@@H](C)C(=O)N[C@H](C(=O)N[C@@H](CCCCN)C(=O)N[C@@H](CC(C)C)C(=O)NCC(=O)N[C@@H](CC(C)C)C(=O)O)[C@@H](C)CC)[C@@H](C)CC)[C@@H](C)O)[C@@H](C)O [Ararin-1] (H-ILLTTAIAIKLGL-OH; N-terminus and C-terminus assumed) :: > 128 µM
CC[C@H](C)[C@H](N)C(=O)N[C@@H](CO)C(=O)N[C@@H](CC(C)C)C(=O)N[C@@H](Cc1ccccc1)C(=O)N[C@H](C(=O)N[C@@H](CCCNC(=N)N)C(=O)N1CCC[C@H]1C(=O)N[C@@H](CC(C)C)C(=O)N[C@@H](C)C(=O)N[C@@H](CC(C)C)C(=O)NCC(=O)N[C@H](C(=O)N[C@@H](CCCNC(=N)N)C(=O)N[C@@H](CC(C)C)C(=O)O)C(C)C)[C@@H](C)CC [Psephotellin-1] (H-ISLFIRPLALGVRL-OH; N-terminus and C-terminus assumed) :: > 128 µM

Request: I would be grateful if you could share the reported CC50 for CC[C@H](C)[C@H](NC(=O)[C@H](CCCCN)NC(=O)[C@H](CC(C)C)NC(=O)[C@H](CCC(N)=O)NC(=O)[C@H](Cc1ccccc1)NC(=O)[C@@H](NC(=O)[C@@H](NC(=O)[C@H](Cc1ccccc1)NC(=O)[C@H](CC(C)C)NC(=O)[C@@H](NC(=O)[C@@H](N)CC(C)C)[C@@H](C)O)[C@@H](C)CC)[C@@H](C)CC)C(=O)N[C@@H](CO)C(=O)N[C@@H](CCCCN)C(=O)N[C@@H](CC(C)C)C(=O)O [Paleopropin-1] (H-LTLFIIFQLKISKL-OH; N-terminus and C-terminus assumed) .
Response: > 128 µM

Request: I would be grateful if you could share the reported CC50 for CC[C@H](C)[C@H](NC(=O)[C@H](CO)NC(=O)CNC(=O)[C@H](CC(C)C)NC(=O)[C@H](CC(C)C)NC(=O)[C@H](CC(C)C)NC(=O)[C@H](CCCNC(=N)N)NC(=O)[C@H](CCCCN)NC(=O)[C@@H](NC(=O)[C@H](CO)NC(=O)[C@H](CC(N)=O)NC(=O)[C@@H](NC(=O)[C@H](CC(C)C)NC(=O)[C@@H](N)CC(C)C)[C@@H](C)CC)[C@@H](C)CC)C(=O)N[C@@H](CC(C)C)C(=O)O [Arctodutin-1] (H-LLINSIKRLLLGSIL-OH; N-terminus and C-terminus assumed) .
Response: > 128 µM

Request: I would be grateful if you could share the reported CC50 for CC[C@H](C)[C@H](NC(=O)[C@H](Cc1ccccc1)NC(=O)[C@H](CC(N)=O)NC(=O)[C@@H](NC(=O)[C@@H](NC(=O)[C@H](Cc1c[nH]cn1)NC(=O)[C@@H](N)CC(C)C)[C@@H](C)O)[C@@H](C)CC)C(=O)N[C@H](C(=O)N[C@@H](CCCCN)C(=O)N[C@@H](CO)C(=O)N[C@@H](CC(C)C)C(=O)N[C@@H](CC(C)C)C(=O)N[C@@H](CC(C)C)C(=O)O)[C@@H](C)CC [Bisonin-1] (H-LHTINFIIKSLLL-OH; N-terminus and C-terminus assumed) .
Response: > 128 µM
